growth inhibition reference
Assay: NCI Yeast Anticancer Drug Screen. Data for the mlh1 strain (AID 171);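 also: 0% = growth of vehicle-treated control cultures of the same strain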
Conditions: S. cerevisiae mlh1 strain growth inhibition; at 11.0 µM; active compounds read high
Compounds without any hit were thinned out: in the full panel of roughly 79,000, 15% have a hit. Active and inactive are the calls of the source. Rule as the data show it: active = growth inhibition above about 70%; inactive = the rest.
readout.kind: growth inhibition

* C[C@@]12CCC(=O)C=C1CC[C@H]1C2=CC[C@]2(C)C1CC[C@@]2(C)O (some centres undefined) | 4% (inactive)
* O=[N+]([O-])c1cc([As](Br)c2ccc(O)c([N+](=O)[O-])c2)ccc1O | 99% (active)
* OC(c1ccc(Br)cc1)C(Cl)(Cl)Cl (centres undefined) | -6% (inactive)
* CC1(C)N=C(N)N=C(N)N1c1cccc(N)c1.[Sn] | 16% (inactive)
* CC1=C(O)C(=O)C=C2C1=CC=C1[C@@]2(C)CCC2(C)[C@@H]3C[C@@H](C)C(=O)C[C@]3(C)CC[C@]12C (some centres undefined) | 95% (active)
* C[N+](C)(C)CC1CCCC(C[N+](C)(C)C)C1=O (centres undefined) | 7% (inactive)
* CC1CCC2(NC1)OC1CC3C4CCC5CC(OC6OC(CO)C(OC7OC(CO)C(O)C(OC8OCC(O)C(O)C8O)C7OC7OC(CO)C(O)C(O)C7O)C(O)C6O)CCC5(C)C4CCC3(C)C1C2C (centres undefined) | -8% (inactive)
* CCCCCCCCCCCCCCCCP(=O)(O)OP(=O)(O)OCC1OC(n2ccc(N)nc2=O)C(O)C1O (centres undefined) | 1% (inactive)
* O=C(O)C1C2C=CC(C2)C1c1ccccc1 (centres undefined) | 1% (inactive)

* * *

Assay: NCI Yeast Anticancer Drug Screen. Data for the rad50EPP+ strain (AID 151);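 also: 0% = growth of vehicle-treated control cultures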
Details: S. cerevisiae rad50 mutant strain, at 100.0 µM
Compounds without any hit were thinned out: in the full panel of roughly 79,000, 15% have a hit. The source made the active and inactive calls. Rule as the data show it: active = growth inhibition above about 70%; inactive = the rest.
Possible outcomes: True = active, False = inactive

- CC(C)(C)c1cc([N+](=O)[O-])cc([N+](=O)[O-])c1O: False
- COC1C(O)C(C)OC(OC2C(Oc3cccc4c(O)c5c(=O)oc6ccc(C)c7c(=O)oc(c34)c5c67)OC(C)C(O)C2O)C1O (stereo unspecified): False
- N#Cc1cc(N(CCCl)CCCl)c([N+](=O)[O-])cc1[N+](=O)[O-]: False
- C=CC[N+]12CN3CN(CN(C3)C1)C2: False
- C/C(=N\NC(N)=O)C(CN1CCOCC1)C(c1ccccc1)c1c(O)c2ccccc2oc1=O (stereo unspecified): False
- O=Cc1ccc(C(F)(F)F)cc1.[C-]#[O+].[C-]#[O+].[C-]#[O+].[Cr]: False
- O=c1c2ccccc2[se]n1-c1cccnc1: True
- CN(N=O)C(=O)NNC(=O)N(C)N=O: True
- CC1CN1C1=C(Cl)C(=O)C(N2CC2C)=C(Cl)C1=O (stereo unspecified): True
- COC(=O)C1=C(C(=O)OC)C2OC1c1cc3ccccc3cc12: True
- Oc1c(Br)cc(Br)cc1Br: True
- O=[N+]([O-])c1ccc(-n2nc3ccc4c(no[n+]4[O-])c3[n+]2[O-])c([N+](=O)[O-])c1: False
- O=P(CCCCP(=O)(c1ccccc1)c1ccccc1)(c1ccccc1)c1ccccc1.[Cl][Sn]([Cl])([c]1ccccc1)[c]1ccccc1: False
- Nc1ccccc1C(=O)OCCc1ccccc1: True
- Cc1ccc2c(c1N)C(=O)c1ccccc1C2=O: True
- N#CC(C#N)=Cc1ccc(C#N)cc1: False
- O=[N+]([O-])c1ccc(C=Cc2ccccc2)cc1.[C-]#[O+].[C-]#[O+].[C-]#[O+].[Cr]: False
- O=C(NNC(=O)OCC(Cl)(Cl)Cl)OCC(Cl)(Cl)Cl: False
- Cc1c(N)nc([C@H](CC(N)=O)NC[C@H](N)C(N)=O)nc1C(=O)N[C@H](C(=O)N[C@H](C)[C@@H](O)[C@H](C)C(=O)N[C@H](C(=O)NCCc1nc(-c2nc(C(=O)NCCC[S+](C)C)cs2)cs1)[C@@H](C)O)C(OC1OC(CO)C(O)C(O)C1OC1OC(CO)C(O)C(OC(N)=O)C1O)c1cnc[nH]1 (stereo partly specified): True
- CCCCCCCCCCCCCCCCP(=O)(O)OCC(N)C(=O)O (stereo unspecified): False
- Oc1ccc(Cl)cc1Cc1ccccc1: True
